These data points were gathered from a melting point compilation (Tetko et al.; mined from patent text by program, amines drawn as free bases though some values may be those of a salt).

List of melting point values.
readout_type: melting point

{"compound": "CSc1ccc(-c2coc3ccc(-c4nnc(C)o4)cc23)cc1C", "result": "185 to 186 °C"}
{"compound": "CC1CC(=O)CCC1c1ccccc1 (stereo not given)", "result": "71.5 to 72.5 °C"}
{"compound": "COc1ccc(CNc2nc(C)nc(C)c2Cl)cc1OCc1ccccc1", "result": "111 to 117 °C"}
{"compound": "O=CNCC1CN(c2c(F)cc3c(=O)c(C(=O)O)cn(-c4ccc(F)cc4F)c3c2F)CCO1 (stereo not given)", "result": "230 to 233 °C"}
{"compound": "NC(Cc1c[nH]c2c(Cl)cccc12)C(=O)O (stereo not given)", "result": "236 to 239 °C"}
{"compound": "CCOC(=O)C(=O)Nc1ccc(S(=O)(=O)NC(=O)C(=O)OCC)c(C(F)(F)F)c1", "result": "161 to 162 °C"}
{"compound": "COc1ccc(-c2c(Cl)c(Cn3cnc4ccccc43)nc3sc4c(c23)CCSC4)cc1", "result": "201 to 203 °C"}
{"compound": "COc1ccc2cc(C(C)(O)C(=O)O)ccc2c1 (stereo not given)", "result": "150 to 152 °C"}
{"compound": "N#Cc1cccc(C2=Nc3ccc(C#Cc4ccc(F)cc4)cc3NC(=O)C2)c1", "result": "245 to 246 °C"}
{"compound": "Cc1csc2ccc3[nH]c4c(c3c12)CN(CCCC(c1ccc(F)cc1)c1ccc(F)cc1)CC4", "result": "158 °C"}
